From: PubChem BioAssay AID1963834

- System: 873145-292-R-J1-PDC complex spheroid viability;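 further: luminescence signal used as surrogate for viable cell content; spheroids exposed to compounds for 7 days before viability readout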
- experiment.summary: Anticancer human tumor 873145-292-R-J1-PDC patient-derived renal clear cell carcinoma cell line growth inhibition [POLQ]
- condition.notes: second compound 0.316 µM; first compound 0.316 µM; hits give low values
Dear colleague, classification is by viability, T/C, with ranges listed here: I (below 70%), II (70% to below 90%), III (90% or more)

The examples below pair each entry with its known result.
{"compound": "C=CCn1c(=O)c2cnc(Nc3ccc(N4CCN(C)CC4)cc3)nc2n1-c1cccc(C(C)(C)O)n1 + Cc1cccc(N(C)C(=O)C2C(O)CCN2c2nc(C)cc(C(F)(F)F)c2C#N)c1", "tested.target": "873145-292-R-J1-PDC complex spheroid viability", "assigned.category": "II"}
{"compound": "C#Cc1c(F)ccc2cc(O)cc(-c3ncc4c(N5CC6CCC(C5)N6)nc(OCC56CCCN5CC(F)C6)nc4c3F)c12 (stereo not given) + COC1C(OC(N)=O)C(O)C(Oc2ccc3c(O)c(NC(=O)c4ccc(O)c(CC=C(C)C)c4)c(=O)oc3c2C)OC1(C)C", "tested.target": "873145-292-R-J1-PDC complex spheroid viability", "assigned.category": "II"}
{"compound": "CCc1c2c(nc3ccc(O)cc13)-c1cc3c(c(=O)n1C2)COC(=O)[C@]3(O)CC + Cc1cccc(N(C)C(=O)C2C(O)CCN2c2nc(C)cc(C(F)(F)F)c2C#N)c1", "tested.target": "873145-292-R-J1-PDC complex spheroid viability", "assigned.category": "I"}
{"compound": "C=CC(=O)N1CCN(c2nc(=O)n(-c3c(C)ccnc3C(C)C)c3nc(-c4c(O)cccc4F)c(F)cc23)C(C)C1 (stereo not given) + Nc1ccc(C#CCN(C(=O)Cc2ncc(C(F)(F)F)cc2C(F)(F)F)c2ccc(F)cc2)nn1", "tested.target": "873145-292-R-J1-PDC complex spheroid viability", "assigned.category": "III"}

Request: Assign a category based on measured viability, T/C for CCCS(=O)(=O)Nc1ccc(F)c(C(=O)c2c[nH]c3ncc(-c4ccc(Cl)cc4)cc23)c1F + Cc1cccc(N(C)C(=O)C2C(O)CCN2c2nc(C)cc(C(F)(F)F)c2C#N)c1 and give only the class name.
Response: III

Request: And then COc1cccc2c1C(=O)c1c(O)c3c(c(O)c1C2=O)CC(O)(C(=O)CO)CC3OC1CC(N)C(O)C(C)O1 (stereo not given) + Nc1ccc(C#CCN(C(=O)Cc2ncc(C(F)(F)F)cc2C(F)(F)F)c2ccc(F)cc2)nn1 , what is it?
Response: II
